The reported measurements were obtained from patent US20120232073A1.

# assay system: human GPR119 (Homo sapiens, UniProt Q8TDV5)
# assay name: cAMP assay (LANCE cAMP kit), activation of GPR119
# condition: HEK293 cells expressing human GPR119; increase in cAMP levels
pEC50: −log10 of the molar value.
List of pEC50 values.

{"compound": "CC(C)OC(=O)N1CC2COCC(C1)C2Oc1ncnc2c1ccn2-c1ccc(C#N)cc1F (stereo not shown)", "assay system": "human GPR119 (Homo sapiens, UniProt Q8TDV5)", "pEC50": "> 7.30"}

Let me check: CC1(OC(=O)N2CC3COCC(C2)C3Oc2ncnc3c2ncn3-c2ccc(Br)cc2F)CC1 (stereo not shown) , system human GPR119 (Homo sapiens, UniProt Q8TDV5), measured pEC50 is 6.30 to 7.00

Let me check: Cc1c(F)ccc(-n2ccc3c(OC4C5COCC4CN(C(=O)OC(C)(C)C)C5)ncnc32)c1C#N (stereo not shown) [Compound 20] , system human GPR119 (Homo sapiens, UniProt Q8TDV5), measured pEC50 is 6.30 to 7.00

Let me check: CS(=O)(=O)c1ccc(-n2cnc3c(OC4C5COCC4CN(c4ncc(Cl)cn4)C5)ncnc32)c(F)c1 (stereo not shown) , system human GPR119 (Homo sapiens, UniProt Q8TDV5), measured pEC50 is 6.00 to 6.30

====

# assay system: human GPR119 (Homo sapiens, UniProt Q8TDV5)
# Construct: expressed in transfected cells; host or cells: HEK293
# assay name: cAMP assay (LANCE cAMP kit), activation of GPR119
# Format: cell-based
# condition: HEK293 cells expressing human GPR119; increase in cAMP levels
# Method: The ability of illustrative compounds of the invention to activate GPR119 and stimulate increases in cAMP levels was determined using the LANCE™ cAMP kit (Perkin Elmer). […] Fluorescence was detected on the plates using an Envision instrument. The level of cAMP in each well is determined by extrapolation from the cAMP standard curve.
reported property: EC50

Worked set:
{"compound": "CC1(OC(=O)N2CC3COCC(C2)C3Oc2ncnc3c2cnn3-c2ccc(F)cc2F)CC1 (stereo not drawn) [Compound 45]", "test result": "100 to 500 nM"}
{"compound": "CC1(OC(=O)N2CC3COCC(C2)C3Oc2ncnc3c2CCN3c2ccc(F)cc2F)CC1 (stereo not drawn)", "test result": "< 50 nM"}
{"compound": "CC(C)(C)OC(=O)N1CC2COCC(C1)C2Oc1ncnc2c1ccn2-c1ccc(C#N)cc1F (stereo not drawn) [Compound 2]", "test result": "< 50 nM"}

EC50 recorded for this compound, Cc1c(F)ccc(-n2ccc3c(OC4C5COCC4CN(C(=O)OC(C)(C)C)C5)ncnc32)c1F (stereo not drawn) [Compound 17] , is 50 to 100 nM

EC50 recorded for this compound, Cn1cc(-c2ccc(-n3ncc4c(OC5C6COCC5CN(C(=O)OC5(C)CC5)C6)ncnc43)c(F)c2)cn1 (stereo not drawn) , is 100 to 500 nM

EC50 recorded for this compound, CC1(OC(=O)N2CC3COCC(C2)C3Oc2ncnc3c2cnn3-c2ccc(C#N)cc2F)CC1 (stereo not drawn) [Compound 37] , is < 50 nM

EC50 recorded for this compound, CC1(OC(=O)N2CC3COCC(C2)C3Oc2ncnc3c2ccn3-c2c(F)cccc2F)CC1 (stereo not drawn) , is < 50 nM

EC50 recorded for this compound, CC1(OC(=O)N2CC3COCC(C2)C3Oc2ncnc3c2ccn3-c2ccc(F)cc2F)CC1 (stereo not drawn) , is < 50 nM

EC50 recorded for this compound, Cc1nc2c(OC3C4COCC3CN(C(=O)OC3(C)CC3)C4)ncnc2n1-c1ccc(C#N)cc1F (stereo not drawn) , is 500 to 1000 nM

====

# assay system: human GPR119 (Homo sapiens, UniProt Q8TDV5)
# Sequence (Q8TDV5 1-335): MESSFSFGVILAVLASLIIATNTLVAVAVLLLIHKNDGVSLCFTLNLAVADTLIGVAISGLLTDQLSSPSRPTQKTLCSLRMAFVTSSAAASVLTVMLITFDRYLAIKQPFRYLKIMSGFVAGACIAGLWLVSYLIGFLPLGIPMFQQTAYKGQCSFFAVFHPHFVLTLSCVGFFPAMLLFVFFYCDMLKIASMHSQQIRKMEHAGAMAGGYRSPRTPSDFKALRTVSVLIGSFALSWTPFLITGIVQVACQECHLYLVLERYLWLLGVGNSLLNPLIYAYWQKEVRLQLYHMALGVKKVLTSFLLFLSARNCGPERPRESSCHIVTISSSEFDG
# assay name: cAMP assay (LANCE cAMP kit), activation of GPR119
# condition: HEK293 cells expressing human GPR119; increase in cAMP levels
pEC50: −log10 of the molar value.
List of pEC50 values.

{"compound": "CS(=O)(=O)c1ccc(-n2ccc3c(OC4C5COCC4CN(c4ncc(F)cn4)C5)ncnc32)c(F)c1 (stereo not shown)", "assay system": "human GPR119 (Homo sapiens, UniProt Q8TDV5)", "test result": "7.00 to 7.30"}

pEC50 recorded for this compound, Cc1cccc(-n2ccc3c(OC4C5COCC4CN(C(=O)OC(C)(C)C)C5)ncnc32)c1C#N (stereo not shown) , is 7.00 to 7.30

pEC50 recorded for this compound, Fc1ccc(N2CCc3c(OC4C5COCC4CN(c4ncc(Cl)cn4)C5)ncnc32)c(F)c1 (stereo not shown) , is 6.30 to 7.00

pEC50 recorded for this compound, CC(C)c1noc(N2CC3COCC(C2)C3Oc2ncnc3c2ccn3-c2ccc(F)cc2F)n1 (stereo not shown) , is 6.30 to 7.00

pEC50 recorded for this compound, CC(C)OC(=O)N1CC2COCC(C1)C2Oc1ncnc2c1OCCN2c1ccc(C#N)cc1F (stereo not shown) , is 6.30 to 7.00

pEC50 recorded for this compound, CC(C)(C)OC(=O)N1CC2COCC(C1)C2Oc1ncnc2c1ccn2-c1c(F)cc(F)cc1F (stereo not shown) [Compound 32] , is > 7.30

pEC50 recorded for this compound, CC(C)(C)OC(=O)N1CC2COCC(C1)C2Oc1ncnc2c1ccn2-c1ccc(C#N)cc1F (stereo not shown) [Compound 1] , is > 7.30

====

List of pEC50 values.
# assay system: human GPR119 (Homo sapiens, UniProt Q8TDV5)
# Sequence (Q8TDV5 1-335): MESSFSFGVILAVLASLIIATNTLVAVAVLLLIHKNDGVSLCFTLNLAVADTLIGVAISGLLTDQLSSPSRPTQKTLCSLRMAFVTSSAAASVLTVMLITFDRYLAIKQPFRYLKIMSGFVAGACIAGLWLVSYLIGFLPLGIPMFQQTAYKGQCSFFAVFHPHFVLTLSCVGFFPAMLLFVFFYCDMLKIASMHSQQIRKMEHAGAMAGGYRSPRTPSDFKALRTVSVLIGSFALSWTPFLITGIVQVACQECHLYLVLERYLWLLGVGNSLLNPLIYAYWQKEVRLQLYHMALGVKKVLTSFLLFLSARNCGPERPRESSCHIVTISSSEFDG
# assay name: cAMP assay (LANCE cAMP kit), activation of GPR119
# condition: HEK293 cells expressing human GPR119; increase in cAMP levels
# Procedure: The ability of illustrative compounds of the invention to activate GPR119 and stimulate increases in cAMP levels was determined using the LANCE™ cAMP kit (Perkin Elmer). […] Fluorescence was detected on the plates using an Envision instrument. The level of cAMP in each well is determined by extrapolation from the cAMP standard curve.
pEC50: −log10 of the molar value.

Let me check: CC(C)(C)OC(=O)N1CC2COCC(C1)C2Oc1ncnc2c1ccn2-c1c(F)cccc1F (stereo not shown) [Compound 14] , system human GPR119 (Homo sapiens, UniProt Q8TDV5), measured pEC50 is > 7.30

Let me check: CC(C)(C)OC(=O)N1CC2COCC(C1)C2Oc1ncnc2c1ccn2-c1ccc(S(C)(=O)=O)cc1F (stereo not shown) [Compound 26] , system human GPR119 (Homo sapiens, UniProt Q8TDV5), measured pEC50 is 6.30 to 7.00

Let me check: CC1(OC(=O)N2CC3COCC(C2)C3Oc2ncnc3c2cnn3-c2ccc(F)cc2F)CC1 (stereo not shown) [Compound 46] , system human GPR119 (Homo sapiens, UniProt Q8TDV5), measured pEC50 is 6.30 to 7.00

Let me check: CS(=O)(=O)c1ccc(-n2ccc3c(OC4C5COCC4CN(c4ncc(Cl)cn4)C5)ncnc32)c(F)c1 (stereo not shown) [Compound 27] , system human GPR119 (Homo sapiens, UniProt Q8TDV5), measured pEC50 is > 7.30

====

# assay system: human GPR119 (Homo sapiens, UniProt Q8TDV5)
# Sequence (Q8TDV5 1-335): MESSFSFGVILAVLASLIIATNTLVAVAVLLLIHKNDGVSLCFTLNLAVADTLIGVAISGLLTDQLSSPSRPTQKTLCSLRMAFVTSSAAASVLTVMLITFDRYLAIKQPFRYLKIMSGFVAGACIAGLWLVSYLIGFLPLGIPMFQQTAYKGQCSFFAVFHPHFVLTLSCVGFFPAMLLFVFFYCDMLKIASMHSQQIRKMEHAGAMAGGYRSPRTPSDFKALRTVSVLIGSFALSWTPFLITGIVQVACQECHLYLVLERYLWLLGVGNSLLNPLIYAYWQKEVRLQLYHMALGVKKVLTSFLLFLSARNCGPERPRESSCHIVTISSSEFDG
# assay name: cAMP assay (LANCE cAMP kit), activation of GPR119
# condition: HEK293 cells expressing human GPR119; increase in cAMP levels
# Protocol: The ability of illustrative compounds of the invention to activate GPR119 and stimulate increases in cAMP levels was determined using the LANCE™ cAMP kit (Perkin Elmer). […] Fluorescence was detected on the plates using an Envision instrument. The level of cAMP in each well is determined by extrapolation from the cAMP standard curve.
List of EC50 values.

{"compound": "Cc1c(F)ccc(-n2ccc3c(OC4C5COCC4CN(C(=O)OC4(C)CC4)C5)ncnc32)c1F (stereo not drawn)", "assay system": "human GPR119 (Homo sapiens, UniProt Q8TDV5)", "test result": "< 50 nM"}
{"compound": "CC1(OC(=O)N2CC3COCC(C2)C3Oc2ncnc3c2[nH]c(=O)n3-c2ccc(C#N)cc2F)CC1 (stereo not drawn)", "assay system": "human GPR119 (Homo sapiens, UniProt Q8TDV5)", "test result": "500 to 1000 nM"}
{"compound": "CCCOC(=O)N1CC2COCC(C1)C2Oc1ncnc2c1ccn2-c1ccc(C#N)cc1F (stereo not drawn)", "assay system": "human GPR119 (Homo sapiens, UniProt Q8TDV5)", "test result": "< 50 nM"}
{"compound": "Cc1c(F)ccc(-n2ccc3c(OC4C5COCC4CN(C(=O)OC(C)(C)C)C5)ncnc32)c1C#N (stereo not drawn) [Compound 21]", "assay system": "human GPR119 (Homo sapiens, UniProt Q8TDV5)", "test result": "50 to 100 nM"}
{"compound": "CC(C)(C)OC(=O)N1CC2COCC(C1)C2Oc1ncnc2c1CCN2c1ccc(F)cc1F (stereo not drawn) [Compound 10]", "assay system": "human GPR119 (Homo sapiens, UniProt Q8TDV5)", "test result": "100 to 500 nM"}
{"compound": "CC1(OC(=O)N2CC3COCC(C2)C3Oc2ncnc3c2cnn3-c2ccc(C#N)cc2Cl)CC1 (stereo not drawn)", "assay system": "human GPR119 (Homo sapiens, UniProt Q8TDV5)", "test result": "< 50 nM"}
{"compound": "CC(C)(C)OC(=O)N1CC2COCC(C1)C2Oc1ncnc2c1OCCN2c1ccc(C#N)cc1F (stereo not drawn)", "assay system": "human GPR119 (Homo sapiens, UniProt Q8TDV5)", "test result": "100 to 500 nM"}
{"compound": "CC(C)(C)OC(=O)N1CC2COCC(C1)C2Oc1ncnc2c1ccn2-c1c(F)cc(F)cc1F (stereo not drawn) [Compound 33]", "assay system": "human GPR119 (Homo sapiens, UniProt Q8TDV5)", "test result": "< 50 nM"}

Let me check: CC1OC(C)C2CN(C(=O)OC3(C)CC3)CC1C2Oc1ncnc2c1cnn2-c1ccc(C#N)cc1F (stereo not drawn) [Compound 38] , system human GPR119 (Homo sapiens, UniProt Q8TDV5), measured EC50 is < 50 nM

Let me check: CC(C)OC(=O)N1CC2COCC(C1)C2Oc1ncnc2c1ncn2-c1ccc(C#N)cc1Cl (stereo not drawn) , system human GPR119 (Homo sapiens, UniProt Q8TDV5), measured EC50 is 100 to 500 nM

Let me check: Cc1cccc(-n2ccc3c(OC4C5COCC4CN(C(=O)OC4(C)CC4)C5)ncnc32)c1C#N (stereo not drawn) , system human GPR119 (Homo sapiens, UniProt Q8TDV5), measured EC50 is 50 to 100 nM

Let me check: CC(C)(C)OC(=O)N1CC2COCC(C1)C2Oc1ncnc2c1ccn2-c1ccc(S(C)(=O)=O)cc1F (stereo not drawn) [Compound 25] , system human GPR119 (Homo sapiens, UniProt Q8TDV5), measured EC50 is 100 to 500 nM

Let me check: CC1(OC(=O)N2CC3COCC(C2)C3Oc2ncnc3c2cnn3-c2ccc(-c3cscn3)cc2F)CC1 (stereo not drawn) , system human GPR119 (Homo sapiens, UniProt Q8TDV5), measured EC50 is 100 to 500 nM

Let me check: CC1(OC(=O)N2CC3COCC(C2)C3Oc2ncnc3c2nnn3-c2ccc(C#N)cc2Cl)CC1 (stereo not drawn) , system human GPR119 (Homo sapiens, UniProt Q8TDV5), measured EC50 is 50 to 100 nM

Let me check: CC1(OC(=O)N2CC3COCC(C2)C3Oc2ncnc3c2OCCN3c2ccc(C#N)cc2F)CC1 (stereo not drawn) , system human GPR119 (Homo sapiens, UniProt Q8TDV5), measured EC50 is 100 to 500 nM
